- Organism: Rattus norvegicus
- assay-protocol: Open TG-GATES - Regimen: Daily Repeat
- Format: toxicity, organism-based, Sprague-Dawley
- Design: regimen Daily Repeat, gender Male, age 6 weeks
- condition-notes: in vivo, po, 100 mg/kg, […], tissue Liver, route gavage, dose level Low, time 14 day
assay-readout: LIVER (g)
Just the number please, in g, no unit attached.

Some solved cases for reference:
INSERT INTO measurements (line_notation, assay_readout, recorded_result) VALUES
  ('COC(=O)C1=C(C)NC(C)=C(C(=O)OC)C1c1ccccc1[N+](=O)[O-]', 'LIVER', 15),
  ('CNC(=C[N+](=O)[O-])NCCSCc1ccc(CN(C)C)o1', 'LIVER', 14.7),
  ('O=C(OC[C@H]1O[C@@H](OC(=O)c2cc(O)c(O)c(OC(=O)c3cc(O)c(O)c(O)c3)c2)[C@H](OC(=O)c2cc(O)c(O)c(OC(=O)c3cc(O)c(O)c(O)c3)c2)[C@@H](OC(=O)c2cc(O)c(O)c(OC(=O)c3cc(O)c(O)c(O)c3)c2)[C@@H]1OC(=O)c1cc(O)c(O)c(OC(=O)c2cc(O)c(O)c(O)c2)c1)c1cc(O)c(O)c(OC(=O)c2cc(O)c(O)c(O)c2)c1', 'LIVER', 13.7);

Measured LIVER of "Cc1nnc2n1-c1ccc(Cl)cc1C(c1ccccc1Cl)=NC2" : 13.6

Measured LIVER of "CN/C(=N/CCSCc1nc[nH]c1C)NC#N" : 13.9

Measured LIVER of "CCOc1ccc(NC(C)=O)cc1" : 13.9

* * *

- Organism: Rattus norvegicus
- assay-protocol: Open TG-GATES - Regimen: Daily Repeat
- Assay type: toxicity, organism-based, Sprague-Dawley
- Set-up: regimen Daily Repeat, gender Male, age 6 weeks
- condition-notes: in vivo, po, 0 mg/kg, […], tissue Plasma, route gavage, dose level Control, time 14 day
As shown below, each of these compounds has a reported Cl value.
Just the number please, in meq/L, no unit attached.

Some solved cases for reference:
INSERT INTO measurements (compound, assay_readout, recorded_result) VALUES
  ('O=C(OC[C@H]1O[C@@H](OC(=O)c2cc(O)c(O)c(OC(=O)c3cc(O)c(O)c(O)c3)c2)[C@H](OC(=O)c2cc(O)c(O)c(OC(=O)c3cc(O)c(O)c(O)c3)c2)[C@@H](OC(=O)c2cc(O)c(O)c(OC(=O)c3cc(O)c(O)c(O)c3)c2)[C@@H]1OC(=O)c1cc(O)c(O)c(OC(=O)c2cc(O)c(O)c(O)c2)c1)c1cc(O)c(O)c(OC(=O)c2cc(O)c(O)c(O)c2)c1', 'Cl', 103.8),
  ('NC1=NC(=O)C(c2ccccc2)O1 (stereo not drawn)', 'Cl', 105.4),
  ('Brc1ccccc1', 'Cl', 106.6),
  ('CCCc1cc(=O)[nH]c(=S)[nH]1', 'Cl', 107.4),
  ('Nc1c2c(nc3ccccc13)CCCC2', 'Cl', 108);

Measured Cl of "CNC(=C[N+](=O)[O-])NCCSCc1ccc(CN(C)C)o1" : 103

Measured Cl of CN1C(=O)CCS(=O)(=O)C1c1ccc(Cl)cc1 (stereo not drawn) : 107.8

Measured Cl of "CCOc1ccc(NC(C)=O)cc1" : 104.6

* * *

- Organism: Rattus norvegicus
- assay-protocol: Open TG-GATES - Regimen: Single
- Format: toxicity, organism-based, Sprague-Dawley
- Parameters: regimen Single, gender Male, age 6 weeks
- condition-notes: in vivo, po, 0 mg/kg, 24 h, tissue Blood, route gavage, dose level Control
assay-readout: Eos (%)
Just the number please, in %, no unit attached.

Some solved cases for reference:
INSERT INTO results (compound, assay_readout, unit_spec, recorded_result) VALUES
  ('Nc1c2c(nc3ccccc13)CCCC2', 'Eos', '%', 0.8),
  ('CCOc1ccc(NC(C)=O)cc1', 'Eos', '%', 1),
  ('CNC(=C[N+](=O)[O-])NCCSCc1ccc(CN(C)C)o1', 'Eos', '%', 1),
  ('CN/C(=N/CCSCc1nc[nH]c1C)NC#N', 'Eos', '%', 0.8),
  ('Brc1ccccc1', 'Eos', '%', 1);

Measured Eos of "CCCc1cc(=O)[nH]c(=S)[nH]1" : 1

Measured Eos of CN(C)CCC(c1ccc(Cl)cc1)c1ccccn1 (centres undefined) : 1

Measured Eos of "CC(C)NNC(=O)c1ccncc1" : 1

Measured Eos of NC1=NC(=O)C(c2ccccc2)O1 (centres undefined) : 1

Measured Eos of CN1C(=O)CCS(=O)(=O)C1c1ccc(Cl)cc1 (centres undefined) : 0.8

Measured Eos of "Cc1nnc2n1-c1ccc(Cl)cc1C(c1ccccc1Cl)=NC2" : 1

Measured Eos of "COC(=O)C1=C(C)NC(C)=C(C(=O)OC)C1c1ccccc1[N+](=O)[O-]" : 1

Measured Eos of CS(=O)(=O)O.Cc1ccc(NC(=O)c2ccc(CN3CCN(C)CC3)cc2)cc1Nc1nccc(-c2cccnc2)n1 [IMATINIB MESYLATE] : 1

Measured Eos of "O=C(OC[C@H]1O[C@@H](OC(=O)c2cc(O)c(O)c(OC(=O)c3cc(O)c(O)c(O)c3)c2)[C@H](OC(=O)c2cc(O)c(O)c(OC(=O)c3cc(O)c(O)c(O)c3)c2)[C@@H](OC(=O)c2cc(O)c(O)c(OC(=O)c3cc(O)c(O)c(O)c3)c2)[C@@H]1OC(=O)c1cc(O)c(O)c(OC(=O)c2cc(O)c(O)c(O)c2)c1)c1cc(O)c(O)c(OC(=O)c2cc(O)c(O)c(O)c2)c1" : 1.2

* * *

- Species on record: Rattus norvegicus
- assay-protocol: Open TG-GATES - Regimen: Single
- Assay type: toxicity, organism-based, Sprague-Dawley
- Design: regimen Single, gender Male, age 6 weeks
- condition-notes: in vivo, po, 0 mg/kg, 9 h, tissue Plasma, route gavage, dose level Control
Could you please mark 1 for values of TBIL below 0.1 mg/dL and -1 for values at or above it?

INSERT INTO assay_data (molecule, class) VALUES
  ('O=C(OC[C@H]1O[C@@H](OC(=O)c2cc(O)c(O)c(OC(=O)c3cc(O)c(O)c(O)c3)c2)[C@H](OC(=O)c2cc(O)c(O)c(OC(=O)c3cc(O)c(O)c(O)c3)c2)[C@@H](OC(=O)c2cc(O)c(O)c(OC(=O)c3cc(O)c(O)c(O)c3)c2)[C@@H]1OC(=O)c1cc(O)c(O)c(OC(=O)c2cc(O)c(O)c(O)c2)c1)c1cc(O)c(O)c(OC(=O)c2cc(O)c(O)c(O)c2)c1', -1);

Request: Quick check: TBIL of "CCCc1cc(=O)[nH]c(=S)[nH]1" under 0.1 mg/dL?
Response: -1

Request: Quick check: TBIL of NC1=NC(=O)C(c2ccccc2)O1 (stereo not drawn) under 0.1 mg/dL?
Response: 1

Request: Quick check: TBIL of "Nc1c2c(nc3ccccc13)CCCC2" under 0.1 mg/dL?
Response: 1

Request: Quick check: TBIL of CN(C)CCC(c1ccc(Cl)cc1)c1ccccn1 (stereo not drawn) under 0.1 mg/dL?
Response: 1

Request: Quick check: TBIL of "CCOc1ccc(NC(C)=O)cc1" under 0.1 mg/dL?
Response: 1

* * *

As shown below, each of these compounds has a reported Ca value.
- Organism: Rattus norvegicus
- assay-protocol: Open TG-GATES - Regimen: Single
- Format: toxicity, organism-based, Sprague-Dawley
- Design: regimen Single, gender Male, age 6 weeks
- condition-notes: in vivo, po, 0 mg/kg, 3 h, tissue Plasma, route gavage, dose level Control
Just the number please, in mg/dL, no unit attached.

Some solved cases for reference:
INSERT INTO results (compound, assay_readout, recorded_result) VALUES
  ('Cc1nnc2n1-c1ccc(Cl)cc1C(c1ccccc1Cl)=NC2', 'Ca', 11.3),
  ('NC1=NC(=O)C(c2ccccc2)O1 (configuration not stated)', 'Ca', 10.7),
  ('O=C(OC[C@H]1O[C@@H](OC(=O)c2cc(O)c(O)c(OC(=O)c3cc(O)c(O)c(O)c3)c2)[C@H](OC(=O)c2cc(O)c(O)c(OC(=O)c3cc(O)c(O)c(O)c3)c2)[C@@H](OC(=O)c2cc(O)c(O)c(OC(=O)c3cc(O)c(O)c(O)c3)c2)[C@@H]1OC(=O)c1cc(O)c(O)c(OC(=O)c2cc(O)c(O)c(O)c2)c1)c1cc(O)c(O)c(OC(=O)c2cc(O)c(O)c(O)c2)c1', 'Ca', 11),
  ('CN(C)CCC(c1ccc(Cl)cc1)c1ccccn1 (configuration not stated)', 'Ca', 10.5),
  ('Nc1c2c(nc3ccccc13)CCCC2', 'Ca', 10.6),
  ('COC(=O)C1=C(C)NC(C)=C(C(=O)OC)C1c1ccccc1[N+](=O)[O-]', 'Ca', 10.6);

Note: attention shifts to another entry.
Measured Ca of "CN/C(=N/CCSCc1nc[nH]c1C)NC#N" : 10.8
